# METHOD NOTES: yeast display, Sf9 membrane polyspecificity reagent, FACS + sequencing; frameworks hold sequencing errors
ASSAY READOUT: polyreactivity (PSR sort gate)

Some sequences with recorded polyreactivity (PSR sort gate):
[
  {
    "ORDERED RESIDUES": "QVQLVDSGGAIVQAGGSLRLSCAASGRTYHRNSKGWYRQAPGKERELVAAITGDGRTNYADSVKGRFTISRDNAKNTVFLPINSLKPEDTAVYYCAATFGFFYYHYDYWGQGTQVTVSS",
    "OBSERVED": "low polyreactivity"
  },
  {
    "ORDERED RESIDUES": "QVQLVESGGGLVQAGGSLRLSCAASGRIFNLYVMGWYRQAPGKERELVATISSGGSTNYADSVKGRFTISRDYAKNTVYLQMNSLKPEDTAVNYCAKPYIVYYTMDYWGQGTQVTVSS",
    "OBSERVED": "low polyreactivity"
  },
  {
    "ORDERED RESIDUES": "QEHLVESGGGLVQAGGSLRLSCAAYGSIFVSYAMGWYRQAPGKERELVAAISWSGGSTYYADSVKGRFTISRDNAKNTVYLQMNSLKPEDTAVYYCNGVPSEGFDWGQGTQVTVSS",
    "OBSERVED": "low polyreactivity"
  },
  {
    "ORDERED RESIDUES": "QVQLVESGGGLVQAGGSLRLSCAASGSIFDDYAMGWSRQAPGKERELVAASSGGVSTNYADSVKGRFTISRDNAKNTVYLQMNSLKPEDTAVYYCNADYAGAYIHDYWGKGTQVTVSS",
    "OBSERVED": "low polyreactivity"
  },
  {
    "ORDERED RESIDUES": "QVQLVESGGGLVQAGGSLRLSSAASGFTFSAYAMGWYRQAPGKEREMVATITSGGSTNYADSVKGRFTISRDNAKNTVYLQMNSLIPEDTAVYYCAADVGWLYYYPKYYYWGQGTQVTVSW",
    "OBSERVED": "low polyreactivity"
  },
  {
    "ORDERED RESIDUES": "QVQLVESGGGLVQAGGSLRLSCAASGRIFGDYAMGWYRQAPGKERELVAAISWSDGSTYYADSVKGRFTISRDNAKNTVYLQMNSLKPEDTAVYYCAAYGWGYRYVDVVVSDFYYWGQGTQVTVSS",
    "OBSERVED": "low polyreactivity"
  },
  {
    "ORDERED RESIDUES": "QVQLVESGGGLVQAGGSLRLSCAASGFTFRRYAMGWYRQAPGKERELVAAITRDDSTNYADSVKGRFTISRDNAKNTVYLQMNSLKPEDTAVYYCAARLWYPYYYWGQGTQVTVSS",
    "OBSERVED": "high polyreactivity"
  },
  {
    "ORDERED RESIDUES": "QVQLVESGGGLVQAGVSLRLSCAASGGTFRPYAMGWYRQERGKERELVAAISYTGSTYYADSVKWRFTISRDNAKNTVYLQMNSLKPEDTGVYYCAKDFWYPPRFDYWGQGTQVTVSS",
    "OBSERVED": "low polyreactivity"
  }
]

Consider the sequence shown here: QLQLVESRRGLVHAGGSLRLSSDASGRIFLYYAMGWYRQAPVKERELVARITSSGSTYYADSVKGLFTISRDNAKNTVYLQMNSLKPEDTAVYYCAADWYWGGIVDSWGQGTQVTVSS What is its recorded polyreactivity (PSR sort gate)? high polyreactivity

Entry to check: QVQLEESGGGLVQAGGSLRLSCAASGIIFQRNDMGLYRQAPGKERELVANIRDGGITYADSVKGRFTISRDNAKNTVYLQMNSLKPEDTAVYYCARDDTSPGYCDQSSNAAYYYWGQGTQVTVSS low polyreactivity

Entry to check: QVQLVESGGGLVQAGGSLRLSCAASGRIFKTNAMGWYRQAPGKERELVAGINSSDGSTYYADSVKGRFTISRDIEKNTVYLQMNSLKPEDTAVYYCAAVRYYWGQGTQVTVSS low polyreactivity

Entry to check: QVQLVESGGGLVQAGGSLRLSCAASGITFYEYAMGWYRQAPGKERELVAAISTSGGNTYYADSVKGRFTISRDNAKNTVYLQMKSLKPEDTAVYYCAAQGTASSYSGGDYWGQGTQVTVSS low polyreactivity

Entry to check: QDQLVESGGCLVQAGGSLRLSCAASGSIFKRNAMGWYRQAPGKERELVASISWSGTRTYYADSVKGRFTISRDNAKNTVYLQMNSLKPEDTAVYYCARRIYGGHPSQSTQGDFYYWGHGTQVTVSS high polyreactivity

Entry to check: QVQLVDSGGGLVQAGGRLRLSCAASGYILTHYAMGWYRQAPGKERELVAAITRVGNTNYADSVKGRFTISRDNAKNTVYLQMNSLKPEDTAVYSCAADGVASLFGDPPTEFDYWGQGTQVTVSS low polyreactivity

Entry to check: QVQLVESGGGLVQAGGSLRLSCAASGRTFRYYTMGWYRQAPGKEREFVAAISSTGGTYYADSVKGRFTISRDNAKNTVYLLMNSLNPEDTAVYYCAATFIQVVVNVQLYDYDYWGQGTQVTVSS low polyreactivity

Entry to check: QVQLVESGGGLVQAGGSLRLSCAASGFTFPKYAMGWYRQSPGKERELVAGITNGGSTFYADSVKGRFTISRDNAKNTVYLQMNSLKPEDPAVYYCAASGRLSLGGRFYDLGLSYDYWGQGTQVTVSS low polyreactivity

* * *

# METHOD NOTES: yeast display, Sf9 membrane polyspecificity reagent, FACS + sequencing; frameworks hold sequencing errors
ASSAY READOUT: polyreactivity (PSR sort gate)

[
  {
    "ORDERED RESIDUES": "QVQLVESGGGLVQARGSLRLSCAASGNTFVRNVMGWYRKAPGKERELFAAITWRSVRTDYADSVKGRFTISLDNAKNTVNLQMNSLKPEDTAVYNCAAPSASRHGEYDYWGQGTQVTVSS",
    "OBSERVED": "low polyreactivity"
  },
  {
    "ORDERED RESIDUES": "QVQLVESGGGLVQAGGSLRLSCAASGSTFAKYAMGWYRQAPGKESELVASIRLSGGSTYYADSVKGRFTISRDNAKNTVYVQRNSLKPEDTAVYYCNKQFATFYYGFDYSYWGQGTQVTVSS",
    "OBSERVED": "low polyreactivity"
  },
  {
    "ORDERED RESIDUES": "QVQLVESGGGLVQAGGSLRLSCAASGFNFRGYAMGWYRQAPGKERELVAAINSGDSTNYADSVKGRFTISRDNAKNTVYLQMNSLKPEDTAVYYCAASIYAALNGGPGYDYWGQGTQVTVSS",
    "OBSERVED": "low polyreactivity"
  }
]

* * *

# METHOD NOTES: yeast display, Sf9 membrane polyspecificity reagent, FACS + sequencing; frameworks hold sequencing errors
ASSAY READOUT: polyreactivity (PSR sort gate)

Some sequences with recorded polyreactivity (PSR sort gate):
[
  {
    "ORDERED RESIDUES": "QVQLVESGGGLVQAGGSLRLSCAASGRTFGGYAMGWYRQAPGKERELVAAIRWSGGSTYYADSVKGRFTISRDNAKNTVYLQMNSLKPEDTAVYNCAARSHTSADGGRYYYWGQGTQVTVSS",
    "polyreactivity (PSR sort gate)": "high polyreactivity"
  },
  {
    "ORDERED RESIDUES": "QVQLVESGGGLVQAGSSLRLSCAASGSIFPVYAMGWYRQSPGKERELVAAISCIGGGTYYADSVKGRFTISRDNAKNTVYLQMNSLKPEDTAVYYCAAVPYTSEYDYWGQGTQVTVSS",
    "polyreactivity (PSR sort gate)": "high polyreactivity"
  },
  {
    "ORDERED RESIDUES": "QFQLEESRGGLVQAGGSLRLSCAASGRIFDLYAMGWYRQAPGKETELVATISGSGGSTYYADSVKGRFTISRDNAKNTVYLQMNSLKPEDTAVYYCAAVSVSSWYDYWGQGTQVTVSS",
    "polyreactivity (PSR sort gate)": "low polyreactivity"
  },
  {
    "ORDERED RESIDUES": "QVQLVESGGGLVQAGGSLRLSCSASGSTITTYAMGWYRQAPGKERELVAAISTNGGRTCYADSVKGRFTISRDYAKNTVSLQMNSLKPEDTAVYYCAAEYGLYAPGYYYWGQGTQVTVSS",
    "polyreactivity (PSR sort gate)": "low polyreactivity"
  },
  {
    "ORDERED RESIDUES": "QVQLVESGGGLVQAGGSLRLSCAASGSIFHQYVMGWYRQAPGKERELVAAISIRGTRTYYADSVKGRFTISRDNAKNTVYLQMNSLKPEDTAVYYCAVSGGRLQGDYWGQGTQVTVSS",
    "polyreactivity (PSR sort gate)": "high polyreactivity"
  },
  {
    "ORDERED RESIDUES": "QVQLVESGGGLVQAGGSLRLSCAATGITFEGYAMGWYRQAPGKERELVAAIRSSGTSTYYADSVKGRFTISRDNAKNTVYLQMNSLKPEDTAVYYCNRARSSSRYDYCGQGTQVTVSS",
    "polyreactivity (PSR sort gate)": "low polyreactivity"
  },
  {
    "ORDERED RESIDUES": "QVHLVESGGGLVQAGGSLRLRCDASGSIFKPYARGWYRQAPGKERELVAGITAGGASTYYADSVKGRFTISRDNAKNTVYLQMNSLKPEDTAVYYCAAGDYQSGVRYDYWGQGTQVTVSS",
    "polyreactivity (PSR sort gate)": "low polyreactivity"
  },
  {
    "ORDERED RESIDUES": "QVQLVESGGGLVQAGGSLRLSCAASGSTFRWNAMGWYRQAPWKERELVAAITWSGGRTYYADSVKGRFTISRDNAKNTVYLQMNSLKPEDTAVYYCAAVRGPEHWYDYYYWGQGTQVTVSS",
    "polyreactivity (PSR sort gate)": "high polyreactivity"
  }
]

Consider the sequence shown here: QVQLVESAGGLVQAGGSLRLSCAASGMILWRYSMGWYRKAPGKEMEFVAAISYRAGSTYYADSVKGRFTISRDNAKNTVYLQMNSLKPEDTAVYYCAAGLKRFGSYPWLKSGMGYWGQGTQVTVSS What is its recorded polyreactivity (PSR sort gate)? high polyreactivity

Entry to check: QVQLVESGGGLVQAGGSLRLSCAASGSTFRGNAMGWYRQAPGKERELVASITGGGSTNYADSVKGRFTISRDNAKNTVYLQMNSLKPEDTAVYYCAADWGADFYGGQGTQVTVSS low polyreactivity

Entry to check: QVQLVESGGGLVQAGGSLRLSCAASGFIFKGYAMGWYRQAPGKERELVATINWSGGRTYYADSVKGRFTISRDNAKNTVYLQMNSLKPEDTAVYYCNVQVGTYAWWYRVGSWYDYWGQGTQVTVSS high polyreactivity

Entry to check: QVQLVETGGGLVQAGGSLRLSCAASGGIFYPNDMGWYRQAPGKEREFVAAITSSSGSTYADSVKGRFTISRDNAKNTVYLQMNSLKPEDTAVYYCATPPDDKGGGYLGYDYWGQGTQVTVSS low polyreactivity

Entry to check: QVQLVESRGGLVQAGGSLRLSCAASGRIYNYYEMGWYRQAHGKESELVAAITWRGGTTYYADSVKGRFTISRDNAKNTVYLQMNSLKPEDTAVYYCATTPRSYRFPPPVGYGYWGQGTQVTVSS high polyreactivity

Entry to check: QVQLVESGGGLVQAGGSLRLSCAASGFTSRLYAMGWYRQAPGKEREFVAAISWDGTRTYYADSVKGRFTISRDNAKNTVYLQMNSLKPEDTAVYYCNARRRQWQARYDYWGQGTQITVSS high polyreactivity

Entry to check: QVHLVESGGGLVKAGGSLRLSCAASGRIFDNYVMGWYRQAPGKERELVAAISSGGGTYYADSVKGRFTISLDNAKNTVYLQMNSLKPEDTAVYYCAAAAYYADFDYWGQGTQVTVSS low polyreactivity

Entry to check: QVQLVESGGGLVQAGGSLRLSCAASGITFTRYAMGWYRQAPGKEREFVAAIRRSGGNTYYADSVKGRFTISRDNAKNNVYLQRNSLKPEESAVYYCPASFRKTSPTRLVDYWGLGTQVTVSS low polyreactivity
